Property: melting point; scope: individual compounds
Metric name: melting point

1) O=C1NC(=O)C(Cc2cccc(OCCc3ccc(Cl)cc3)c2)S1 (stereo not drawn) = 90 to 91 °C
2) O=C1NC(=O)C(=Cc2ccc(OCCc3ccc(Cl)cc3)cc2)S1 = 202 to 203 °C
3) O=C1NC(=O)C(=Cc2cccc(OCCc3ccc(Cl)cc3)c2)S1 = 186 to 187 °C
4) COC(=O)CCc1ccc(OCCn2ccc3ccccc32)cc1 = 85 °C
5) O=C1NC(=O)C(Cc2ccc(OCCc3ccc(Cl)cc3)cc2)S1 (stereo not drawn) = 147 to 148 °C
6) COC(=O)Cc1ccc(OCCn2ccc3ccccc32)cc1 = 50 to 52 °C
7) COC(=O)C(Cc1ccc(OC(=O)Nc2ccc([N+](=O)[O-])cc2)cc1)C(=O)OC = 128 to 130 °C
8) CCOC(=O)[C@H](Cc1ccc(OC(=O)NCc2ccc(OC)cc2)cc1)NC(=O)c1ccccc1 = 149 to 151 °C
9) CCCCc1ccc(NC(=O)Oc2ccc(CC(C(=O)OC)C(=O)OC)cc2)cc1 = 90 to 92 °C

* * *

Property: melting point; scope: individual compounds
Structures can show the parent of a compound that is named as a salt.
Metric name: melting point

1) COC(=O)C(Cc1ccc(OC(=O)Nc2ccc(Cl)cc2)cc1)C(=O)OC = 125 to 127 °C
2) COC(=O)C(Cc1ccc(OC(=O)NCc2ccc(OC)cc2)cc1)C(=O)OC (as salt: malonate) = 78.6 °C
3) COC(=O)C(=Cc1ccc(OCCn2ccc3ccccc32)cc1)C(=O)OC [Example 3] = 68 to 70 °C
4) COC(=O)C(O)Cc1ccc(OCCn2ccc3ccccc32)cc1 (stereo not drawn) [Example 12] = 70 to 72 °C
5) COC(=O)C(Cc1ccc(OCCc2ccc3ccccc3c2)cc1)C(=O)OC [Example 29] = 68.5 °C
6) COC(=O)C(Cc1cccc(OC(=O)Nc2ccc(Cl)cc2)c1)C(=O)OC = 79 to 80 °C
7) O=C(O)C(Cc1ccc(OCCn2ccc3ccccc32)cc1)C(=O)O [Example 5] = 112 to 114 °C
8) COC(=O)C(Cc1ccc(OC(=O)Nc2ccc(Cl)cc2Cl)cc1)C(=O)OC = 84 °C
9) COC(=O)C(Cc1cccc(OC(=O)NCc2ccc(OC)cc2)c1)C(=O)OC = 62 to 64 °C
